target: T1, PD-L1 proteins (R&D systems) (UniProt Q9NZQ7 19-239, limits assumed); experiment: SPR (BIAcore X), PD-L1 immobilized on CM5 chip, four concentrations (45-270 nM by the legend)
T1 construct: Commercial recombinant PD-L1; It was immobilized on a CM5 chip for SPR and used in solution for the FP assay; also called immobilized PD-L1 proteins
T1 sequence (Q9NZQ7 19-239 limits assumed): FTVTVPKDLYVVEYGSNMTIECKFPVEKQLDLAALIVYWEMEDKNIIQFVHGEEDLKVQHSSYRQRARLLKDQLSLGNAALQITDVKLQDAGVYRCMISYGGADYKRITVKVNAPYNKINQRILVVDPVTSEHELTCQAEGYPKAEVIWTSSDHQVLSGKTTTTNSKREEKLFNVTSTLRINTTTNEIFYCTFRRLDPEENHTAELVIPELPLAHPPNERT
No end group written: not given here.

binder: HVVWHRESPSGQTDTKAA-NH2 (other, not fully specified, also called G7-βH2_mt conjugates; DPC) [G7-βH2_mt (βH2_mt peptides conjugated to 90% acetylated G7 PAMAM dendrimer)]
unitDescriptor: nM
Kd: 2.75
